assay-protocol: Cytotoxicity against human HL60 cells after 48 hrs by MTT assay
Type: functional, cell-based
settings: HL-60, 48 h
readout-kind: pIC50
The value called pIC50 is obtained by taking minus log10 of the concentration in mol/L.

Below are worked cases with known answers.
O=c1ccc2cc(OCc3cn(-c4ccc(Cl)c(Cl)c4)nn3)ccc2o1; 4.32
O=c1ccc2cc(OCc3cc(-c4cccc([N+](=O)[O-])c4)no3)ccc2o1; 4.35
O=c1ccc2cc(OCc3cc(-c4cccc5ccccc45)no3)ccc2o1; 4.38
O=c1ccc2cc(O)ccc2o1 [6-HYDROXYCOUMARIN]; 4.46
Cn1c(=O)n(-c2ccc(C(C)(C)C#N)cc2)c2c3cc(-c4cnc5ccccc5c4)ccc3ncc21; 4.91
O=c1ccc2cc(OCc3cc(-c4ccc([N+](=O)[O-])cc4)no3)ccc2o1; 4.25

Could you now look at the following compound, please?
Query string: Please report the recorded pIC50 for O=c1ccc2cc(OCc3cn(-c4ccc([N+](=O)[O-])cc4)nn3)ccc2o1 .
Result string: 4.34
